Value source: ChEMBL document CHEMBL3352064

- System: Candida albicans
- PROTOCOL DESCRIPTION: Antimicrobial activity against Candida albicans by two-fold serial dilution technique
- Assay type: functional
In this section we review reported MIC values for a set of compounds.
ASSAY METRIC: MIC (µg/mL)

1. Cc1cc(=O)oc2cc(OCC(O)Cn3cnc4ccccc43)ccc12 (centres undefined); 128
2. Cc1cc(=O)oc2cc(OCC(O)Cn3cncn3)ccc12 (centres undefined); 4
3. Cc1cc(=O)oc2cc(OCC(O)Cn3nnc4ccccc43)c(OCC(O)Cn3nnc4ccccc43)cc12 (centres undefined); 8
4. Cc1cc2ncn(CC(O)COc3cc4oc(=O)cc(C)c4cc3OCC(O)Cn3cnc4cc(C)c(C)cc43)c2cc1C (centres undefined); 16
